- methodNotes: amyloid nucleation score (Sup35N fusion, yeast selection) (log enrichment); library NNK3; higher = more nucleation; inactive = no reads after selection;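 further: zero at mode of non-aggregating sequences after 7 days selection at 30°C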
measuredEndpoint: amyloid nucleation score

[
  {
    "substance": "HLLEVFKDSCRTRGRMLLWG",
    "result": "inactive"
  },
  {
    "substance": "RFRMHIIYKRKGIACVRSTS",
    "result": "inactive"
  },
  {
    "substance": "DTGLAESQGMN",
    "result": "inactive"
  },
  {
    "substance": "RKLFFEFFFCDSVH",
    "result": "inactive"
  },
  {
    "substance": "LLVVNNCIYGMVKRSIGYD",
    "result": 2.13
  },
  {
    "substance": "LSYSSRTRCMLLSLYWCSIR",
    "result": "inactive"
  }
]

Please fill in: amyloid nucleation score reported for LLGRSLH = inactive

Briefly, amyloid nucleation score measured for LVMKQRLIMLYVKLNKAFLA : inactive

Value of measured amyloid nucleation score for the entry EEVAGSTYIISSVVVYSRAG : 1.57

// sample GSDFTESCVDFFLVVNVDAV , its amyloid nucleation score was inactive

For reference, reported amyloid nucleation score for AMSTPIGMGEVKFKCFILWL stands at 0.56

# substance QKIIVSR ; its amyloid nucleation score = inactive

// recorded amyloid nucleation score for ISCYLSDPVYS : -0.493

Sure, the documented amyloid nucleation score for SEGDLKYVW is inactive

* * *

- methodNotes: amyloid nucleation score (Sup35N fusion, yeast selection) (log enrichment); library NNK3; higher = more nucleation; inactive = no reads after selection
measuredEndpoint: amyloid nucleation score

Sample records with amyloid nucleation score:
[
  {
    "substance": "FFETRKYCGKEWFSGMLDMQ",
    "result": "inactive"
  },
  {
    "substance": "VNFWMMRHAGCCKVHNKLSV",
    "result": "inactive"
  },
  {
    "substance": "KVIDSLVVSRLLTCASRHIR",
    "result": 1.32
  },
  {
    "substance": "RLQMGVLDLFYFD",
    "result": "inactive"
  },
  {
    "substance": "SAGIIFCMKSLVFSFLFITL",
    "result": "inactive"
  }
]

// amyloid nucleation score lookup, substance = ALFLIFSRELHSNDNLLECS , result: 0.367

// recorded amyloid nucleation score for LYQRYMDMTSYCS : inactive

* * *

Assign amyloid nucleation score to each entry below.
- methodNotes: amyloid nucleation score (Sup35N fusion, yeast selection) (log enrichment); library NNK1; higher = more nucleation; inactive = no reads after selection

Documented amyloid nucleation score of ILELGGCLVYYRGN : 0.087

Query KYSLNM yields amyloid nucleation score of -0.872

The reported value for WISYVQNTIYRFAFEESCLG in terms of amyloid nucleation score is 1.31

For reference, reported amyloid nucleation score for TFGINRYNFRISARIGQVCI stands at -0.284

For record RMMSVGALGQG the listed amyloid nucleation score is 0.323

Entry ISNMETGHLEYSLRLAPKYC , amyloid nucleation score reported as -0.658

Reported amyloid nucleation score for YLAQIELRLV was 0.053

amyloid nucleation score reading for QLTVYMFFCYC : 5.38

Record summary for LKYTVPGLISPGFLGVVDYV : reported amyloid nucleation score = -0.624

* * *

- methodNotes: amyloid nucleation score (Sup35N fusion, yeast selection) (log enrichment); library NNK2; higher = more nucleation; inactive = no reads after selection
Please enter TRUE where amyloid nucleation score is greater than or equal to 0.1, and FALSE where it is lower.

Identify whether the reported amyloid nucleation score of the following sequence is 0.1 or greater: LGIKRNQI
FALSE

Exam item: decide whether the reported amyloid nucleation score for TIALPNFVWPKSSRKVYFS is at least 0.1.
FALSE

Textbook exercise: given the entry YGVGMVWMVIECEEVGYVRR , state whether its amyloid nucleation score is greater than or equal to 0.1.
TRUE

Could you verify whether the entry AKLPKPSRLHQRLTKQTV shows amyloid nucleation score of no less than 0.1?
TRUE

amyloid nucleation score >= 0.1 for SWINLQVS ?
FALSE

Say whether LCSSKETDMPFLVLQSLKSN shows amyloid nucleation score of 0.1 or more.
FALSE

hey, is amyloid nucleation score for this one >= 0.1? RVMEYEILLIFCI
TRUE

# check: amyloid nucleation score of KIRASVNSSRFFWFDAS is greater than or equal to 0.1
TRUE

Tell me whether amyloid nucleation score is at least 0.1 here: NRIYVQNRPWSIPENVELTG
FALSE

* * *

- methodNotes: amyloid nucleation score (Sup35N fusion, yeast selection) (log enrichment); library NNK3; higher = more nucleation; inactive = no reads after selection
measuredEndpoint: amyloid nucleation score

Examples from the recorded data:
[
  {
    "seq": "VMYNYARFRWFLCTDQ",
    "result": 1
  },
  {
    "seq": "SFCFSNDVA",
    "result": "inactive"
  },
  {
    "seq": "IKLVIANCNYMMYVEMV",
    "result": "inactive"
  },
  {
    "seq": "MLLYYEEGLCIFLLSLNPVC",
    "result": "inactive"
  },
  {
    "seq": "CPHMKLFRLLI",
    "result": "inactive"
  },
  {
    "seq": "VSPMVALCCFCLKEMNFGVH",
    "result": 2.92
  }
]

// amyloid nucleation score lookup, sequence = VCIPYMVVVFISSIP , result: 1.72

The sequence SGHSAFGKKGLRGM showed amyloid nucleation score equal to inactive

Form: sequence = MTCWTTYNGTDIEGKGGINN ; amyloid nucleation score = inactive

* * *

- methodNotes: amyloid nucleation score (Sup35N fusion, yeast selection) (log enrichment); library NNK3; higher = more nucleation; inactive = no reads after selection
measuredEndpoint: amyloid nucleation score

[
  {
    "substance": "YEYWYFCRDDNNFVYLIR",
    "amyloid nucleation score": "inactive"
  },
  {
    "substance": "PRLRHVICHGRFWNPMIQVG",
    "amyloid nucleation score": 0.971
  },
  {
    "substance": "YASSCDVKLMQSSPLAYEVD",
    "amyloid nucleation score": "inactive"
  },
  {
    "substance": "HWYVIKLSSNGCTFAVSLRV",
    "amyloid nucleation score": "inactive"
  },
  {
    "substance": "LVVNRDYFCRSVGPIVLLEP",
    "amyloid nucleation score": "inactive"
  },
  {
    "substance": "VIVELVCLVMFNVWVGKGLW",
    "amyloid nucleation score": -0.054
  }
]

Looking up SLILERFNRHCVWGVSVKKH , I found its amyloid nucleation score recorded as inactive

Record summary for MLSFLYRELN : reported amyloid nucleation score = inactive

Looking up IRNERRQGSCGIIISRNCYV , I found its amyloid nucleation score recorded as inactive

Looking up LVFHQDMCGNYYFRH , I found its amyloid nucleation score recorded as 0.953

Form field amyloid nucleation score, entry DTLLRKFWVIIVIGTALGSM : inactive

Form: substance = RMNNLSGEQKQLCDLSLAVR ; amyloid nucleation score = inactive

Noted for DRNLDVPCLDVLRSMLDVCN : its amyloid nucleation score reads -0.464

The reported value for ARKMRKAMYLRGTSALVPCL in terms of amyloid nucleation score is inactive

The measured amyloid nucleation score associated with DLFGCPDLMMYTELIMLYW reads inactive

amyloid nucleation score in this record for CKFSDW : inactive

For record DMWYRYYMSLGSCKRGSVWK the listed amyloid nucleation score is inactive

Lab book: amyloid nucleation score of GYCGQVCWFNAKSWMKRMTF noted as inactive

Entry WDAPMSNVDRL ; amyloid nucleation score = inactive

* * *

- methodNotes: amyloid nucleation score (Sup35N fusion, yeast selection) (log enrichment); library NNK3; higher = more nucleation; inactive = no reads after selection
measuredEndpoint: amyloid nucleation score

The cases that follow already have their amyloid nucleation score on record.
[
  {
    "substance": "TWSWVVAASVKLISFKL",
    "amyloid nucleation score": "inactive"
  },
  {
    "substance": "RVAFSMESTPWSMFTSRTAE",
    "amyloid nucleation score": "inactive"
  },
  {
    "substance": "KICSIVPLYIRGGHSLGSVV",
    "amyloid nucleation score": "inactive"
  },
  {
    "substance": "IHLGMWIRKQFY",
    "amyloid nucleation score": 0.985
  }
]

Next item in the queue.
Sample EDHFSLHACVSSGTLSKVVY ; amyloid nucleation score observed: inactive

* * *

- methodNotes: amyloid nucleation score (Sup35N fusion, yeast selection) (log enrichment); library NNK2; higher = more nucleation; inactive = no reads after selection
measuredEndpoint: amyloid nucleation score
No unit in the answer, only the number.

Value of amyloid nucleation score reported for the substance VFVARITSRTIIVLNESGFE is 5.21

// sample YLSKTLIAVMDFCVLDTG , its amyloid nucleation score was -0.971

Reported amyloid nucleation score ( MTYIRFPLMQGHFWIMSNSK ) = 0.181

get_value(item= YPEADALLRFGVMDIHN , readout=amyloid nucleation score) returns 0.085

For record YWPLVIFLAWPMKYFVLEVM the listed amyloid nucleation score is -0.417

Record LAMLRS , field amyloid nucleation score: 1.17

The measured amyloid nucleation score associated with LRVVSES reads -0.599

# substance SYTSAYSRYIWRHQIIMGKK ; its amyloid nucleation score = -1.11

Per the records, this substance ( FSVTMF ) has amyloid nucleation score equal to -0.197

According to the records, this substance SRVSLHNES displays amyloid nucleation score of -0.453

Lab note: measured amyloid nucleation score of LVVNASLRWIRHWSKGF was 4.51

# amyloid nucleation score (substance: CYIRSVFSQWLTACLVNWFM ) is -1.86

Consider GRWSRF . Its measured amyloid nucleation score is 0.446

So for YNSCFYQKWVMCGHSCYHQV , the logged amyloid nucleation score turned out to be 4.77

Consider MVHMGGDDMCCGIVVWTQAP . Its measured amyloid nucleation score is 11.8

For reference, reported amyloid nucleation score for TFDLQFELFMGDRTLSLL stands at -0.038

# substance GSFMYSREVRLRYALARSFE ; its amyloid nucleation score = -0.545

For reference, reported amyloid nucleation score for LSVTGDTWRMVSRYSHECKD stands at 0.859

Per the records, this substance ( FYTTRMYLVFSYFV ) has amyloid nucleation score equal to 3.29

Briefly, amyloid nucleation score measured for HRDGLPVVTL : 0.034

// field: amyloid nucleation score; key: WFFRVLCLCRTLWNHYSFF ; value = 0.054

Query IPSRAVVPFFLDLRPHADVS yields amyloid nucleation score of 0.25

Entry MWVWQEPDVWARLCLDGYEK — recorded amyloid nucleation score = -0.127

So for VVKLMAMFGRTNVLTLERHL , the logged amyloid nucleation score turned out to be 0.655

Entry NSVCYGP , amyloid nucleation score reported as 0.899

get_value(item= FSMRFRKVFICKMDIQQAYV , readout=amyloid nucleation score) returns 0.13

According to the records, this substance PIWFQFGVANTSGLNGVLTS displays amyloid nucleation score of 0.612

The recorded amyloid nucleation score for entry SLKMRNRWGIDVVE equals 0.386

Entry AQCAYTTDGFPFLCWRSGTF ; amyloid nucleation score = 0.701

// sample VSWLDYHVSPSRCRGTLNPC , its amyloid nucleation score was 0.463

In plain terms, YLEWIL has a documented amyloid nucleation score of -2.06

In plain terms, IGMCLILRNPYIVLSDRWSS has a documented amyloid nucleation score of 0.308

Record summary for NWLLRG : reported amyloid nucleation score = 1.26

Lookup result for CLYCGDLLLRFEYKCRGVNQ ; measured amyloid nucleation score: 5.15

Lookup result for AWYKFIITMPFIFKSDITST ; measured amyloid nucleation score: -0.454
